- assay_summary: Octanol-phosphate buffered saline partition coefficient, log P of the compound at 100 uM after 30 mins
- Format: physicochemical
Please mark Fulfilled if the recorded logP at 0.5 h, 100 µM is equal to or greater than 2, and Not fulfilled if it falls below.

## Task State whether the measured logP at 0.5 h, 100 µM reaches 2, counting equality as reaching it, for "CCCS(=O)(=O)N(CC)c1cccc2c3nc4ccc(N(CC)CC)cc4sc-3c/c(=N\CC)c12.Cl"
## Result Fulfilled

## Task Test whether the compound "CC/N=c1/cc2sc3cc(N(CC)CC)ccc3nc-2c2c(N)cccc12.Cl" records logP at 0.5 h, 100 µM of 2 or higher.
## Result Not fulfilled

## Task Could you tell me if the measured logP at 0.5 h, 100 µM of "CCCS(=O)(=O)N(CC)c1cccc2/c(=N\CC)cc3sc4cc(N(CC)CC)ccc4nc-3c12.Cl" reaches 2 or more?
## Result Fulfilled

## Task Check this compound for logP at 0.5 h, 100 µM at or above 2: "CCN(CC)c1ccc2nc3c4ccccc4/c(=N\CCNC(=N)N)cc-3sc2c1.Cl.Cl"
## Result Not fulfilled

## Task Determine whether measured logP at 0.5 h, 100 µM meets or exceeds 2 for "CC/N=c1/cc2sc3cc(N(CC)CC)ccc3nc-2c2ccccc12.Cl"
## Result Fulfilled

## Task Given the entry "CC/N=c1/cc2sc3cc(N(CC)CC)ccc3nc-2c2c(NC(C)=O)cccc12.Cl" , answer whether its logP at 0.5 h, 100 µM meets or surpasses 2.
## Result Not fulfilled

Recorded values, source ChEMBL document CHEMBL3120084.
